# Test system: normal primary NK cells, pool 1 (3 donors), resting (IL-2 0 ng/mL);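 note: normalised to DMSO-only wells as negative and benzethonium chloride as positive control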
# test: percent inhibition of viability; higher = more inhibition
# condition_summary: 72 h; 1 nM
Each record is given Fulfilled if its reported percent inhibition of viability is strictly below -10%. Records at or above -10% are given Not fulfilled.

- compound: "CCn1c(-c2nonc2N)nc2c(C#CC(C)(C)O)ncc(OC[C@H]3CCCNC3)c21 (max concentration tested 10000 nM)"
  assigned_label: "Fulfilled"
- compound: "O=C1NC(=O)/C(=C/c2ccc3nccc(-c4ccncc4)c3c2)S1 (max concentration tested 10000 nM)"
  assigned_label: "Not fulfilled"
- compound: "CN(C)C(=O)c1cc2cnc(Nc3ccc(N4CCNCC4)cn3)nc2n1C1CCCC1 [NVP-LEE011] (max concentration tested 10000 nM)"
  assigned_label: "Not fulfilled"
- compound: "CN(c1ccccc1CNc1nc(Nc2ccc3c(c2)CC(=O)N3)ncc1C(F)(F)F)S(C)(=O)=O (max concentration tested 10000 nM)"
  assigned_label: "Fulfilled"
- compound: "COc1cc(O)c2c(c1)/C=C/C[C@H](O)[C@H](O)C(=O)/C=C\\C[C@H](C)OC2=O [(5Z)-7-Oxozeaenol] (max concentration tested 10000 nM)"
  assigned_label: "Fulfilled"
- compound: "Cc1cc(C(C)Nc2ccccc2)c2nc(N3CCOCC3)cc(=O)n2c1 (stereo unspecified) [TGX-221] (max concentration tested 10000 nM)"
  assigned_label: "Not fulfilled"
